Biological target: T1, human CD8 on cells (CD8-overexpressing HEK293T cells, SupT1, HPB-ALL, human T cells, transfected HEK293 of … (human, UniProt P01732 22-235))
T1 construct: whole, on cells; also called cell surface CD8
T1 sequence (P01732 22-235): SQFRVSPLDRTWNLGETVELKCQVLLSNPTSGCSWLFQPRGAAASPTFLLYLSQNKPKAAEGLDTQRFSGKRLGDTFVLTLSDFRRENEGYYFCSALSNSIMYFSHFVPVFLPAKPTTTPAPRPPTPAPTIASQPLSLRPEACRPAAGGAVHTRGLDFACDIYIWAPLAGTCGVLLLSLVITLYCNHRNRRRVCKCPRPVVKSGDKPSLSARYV
Test: flow cytometry on CD8-overexpressing HEK293T cells, non-linear fit of normalized gMFI
EC50 overview
Report the figure in nM without appending any unit label.

These recorded examples may help you get a feel for the data.
CBD1035 whole antibody, Fc-silenced human IgG1 (LALAPA) (antibody, V domains shown) VH: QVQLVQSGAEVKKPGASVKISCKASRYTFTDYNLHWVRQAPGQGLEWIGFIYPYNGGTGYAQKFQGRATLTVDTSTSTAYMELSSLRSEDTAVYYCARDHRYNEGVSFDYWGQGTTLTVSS VL: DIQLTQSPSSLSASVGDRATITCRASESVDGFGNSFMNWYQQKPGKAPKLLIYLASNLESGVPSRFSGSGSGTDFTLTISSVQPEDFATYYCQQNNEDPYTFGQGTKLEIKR	1.75
CBD1033 whole antibody, human IgG1 with Fc-silencing mutations L234A, L235A and P329A (CBD1033-hIgG1-LALAPA) (antibody, V domains shown, On tLNPs the antibody was SATA-modified or AJICAP-thiolated (CBD1033.29) and conjugated to the LNP; also called CBD1033.3; CBD1033 IgG1) VH: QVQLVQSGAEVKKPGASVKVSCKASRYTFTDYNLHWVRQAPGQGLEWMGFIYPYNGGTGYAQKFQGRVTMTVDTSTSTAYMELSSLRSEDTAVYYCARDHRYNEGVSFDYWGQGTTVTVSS VL: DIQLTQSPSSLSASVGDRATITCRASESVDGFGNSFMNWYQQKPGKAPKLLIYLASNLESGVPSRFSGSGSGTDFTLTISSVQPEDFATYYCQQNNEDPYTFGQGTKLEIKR	2.78

In the following, a different binder is considered.
(Q) So what's the measured EC50 for this one? CBD1036-hIgG1-LALAPA (antibody, V domains shown, also called h1017-H3/L3 whole antibody) VH: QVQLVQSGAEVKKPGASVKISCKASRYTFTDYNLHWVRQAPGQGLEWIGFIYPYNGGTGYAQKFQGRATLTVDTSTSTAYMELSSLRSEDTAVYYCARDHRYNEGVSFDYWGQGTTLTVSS VL: DIQLTQSPSSLSASVGDRATITCRASESVDGFGNSFMNWYQQKPGKAPKLLIYLASNLESGVPSRFSGSGSRTDFTLTISSVQPEDFATYYCQQNNEDPYTFGQGTKLEIKR
(A) 2.69
